Entry source: PubChem BioAssay (NCI)

Test: NCI Yeast Anticancer Drug Screen. Data for the rad18 strain (AID 177)
Conditions: S. cerevisiae rad18 mutant growth inhibition; at 3.7 µM; hits give high values
This is part of a sample that, as a whole, favours compounds with a hit. Of some 79,000 tested, about 15% had one in any assay.
Consider the following compounds; for each one, report its growth inhibition.
Answers are plain numbers, in %.

As a guide, the following entries are already answered.
O=C(O)C1CCCCC1c1c2ccc(=O)c(O)c-2oc2c(O)c(O)ccc12 (stereo unspecified); 5
CN(C)CCn1c2c3ccccc3ccc2c2oc(=O)c3ccccc3c21; -7
CC(C)NC(=O)OCc1c(COC(=O)NC(C)C)c(-c2ccc(Cl)c(Cl)c2)n2c1CCC2; 2
OCC1OC(OCC(O)C(O)C(O)C(/C=N/Nc2ccccc2)=N/Nc2ccccc2)C(O)C(O)C1O (stereo unspecified); 25

Could you report growth inhibition for every entry in the following list?
1. Cc1[nH]c2ccccc2c1C(c1ccc(N)cc1)c1c(C)[nH]c2ccccc12
2. O=[N+]([O-])c1cc2no[n+]([O-])c2cc1N1CCCCC1

4
73
